Molecular target: Recombinant human TDO comprising amino acids 19-407 (Homo sapiens, UniProt P48775)
Construct: Recombinant human TDO comprising amino acids 19-407 with a N-terminal hexahistidine tag; hexahistidine (His6) (N); made in house; host or cells: E. coli
Sequence (P48775 19-406 limits assumed): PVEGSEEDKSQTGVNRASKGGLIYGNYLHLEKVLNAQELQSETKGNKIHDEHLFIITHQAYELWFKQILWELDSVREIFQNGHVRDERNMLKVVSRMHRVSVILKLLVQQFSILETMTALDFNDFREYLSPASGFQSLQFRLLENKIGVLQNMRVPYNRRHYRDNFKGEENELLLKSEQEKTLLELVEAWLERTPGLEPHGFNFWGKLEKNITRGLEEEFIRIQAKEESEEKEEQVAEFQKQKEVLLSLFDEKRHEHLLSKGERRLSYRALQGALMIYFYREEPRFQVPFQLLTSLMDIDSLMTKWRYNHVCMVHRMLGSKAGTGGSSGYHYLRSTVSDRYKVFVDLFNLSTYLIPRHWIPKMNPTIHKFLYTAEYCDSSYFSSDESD
Experiment: TDO2 enzymatic assay (NFK quantified by LCMS)
Type: biochemical
Conditions: 15 nM enzyme, 200 μM L-tryptophan, pH7, 30 minutes pre-incubation at RT; mean values when measured multiple times; read-out: hTDO activity (IC50 in nM)
experimental-readout: IC50

As a guide, the following entries are already answered.
# compound, value-observed
records = [
    ("OC(c1cn(-c2ccc(OCc3ccccc3)c(F)c2)nn1)c1c([C@@H]2C[C@H]2F)sc2cncn12 (relative stereo)", "> 10200 nM"),
    ("CC(C)(O)CCOc1ccc(-n2cc(C(O)c3c(C4(C)CC4)sc4cncn34)nn2)cc1Cl (racemic)", "> 10200 nM"),
]

IC50 reported for this compound CCc1sc2cncn2c1C(O)c1cn(-c2ccccc2)nn1 (racemic) : 6740 nM

The reported value for CCc1sc2cncn2c1C(O)c1cn(-c2ccc(C(=O)NCCN(C)C)cc2)nn1 (racemic) in terms of IC50 is 9720 nM

IC50 reading for OC(c1cn(-c2ccc(OCC3COC3)cc2)nn1)c1c(C2CC2)sc2cncn12 (racemic) : > 10200 nM

Looking up OC(c1ncc(-c2ccccc2)s1)c1c(C2CC2)sc2cncn12 (racemic) , I see its IC50 listed as > 10200 nM

IC50 reading for CCOc1ncc(-n2cc(C(O)c3c(C4CC4)sc4cncn34)nn2)cc1Cl (racemic) : > 10200 nM

Where do these numbers come from? They come from patent US20200405696A1.
